pIC50: −log10 of the molar value.
Here we list molecules with their recorded pIC50 when tested on UniProt P37288.
Sequence (P37288 whole entry): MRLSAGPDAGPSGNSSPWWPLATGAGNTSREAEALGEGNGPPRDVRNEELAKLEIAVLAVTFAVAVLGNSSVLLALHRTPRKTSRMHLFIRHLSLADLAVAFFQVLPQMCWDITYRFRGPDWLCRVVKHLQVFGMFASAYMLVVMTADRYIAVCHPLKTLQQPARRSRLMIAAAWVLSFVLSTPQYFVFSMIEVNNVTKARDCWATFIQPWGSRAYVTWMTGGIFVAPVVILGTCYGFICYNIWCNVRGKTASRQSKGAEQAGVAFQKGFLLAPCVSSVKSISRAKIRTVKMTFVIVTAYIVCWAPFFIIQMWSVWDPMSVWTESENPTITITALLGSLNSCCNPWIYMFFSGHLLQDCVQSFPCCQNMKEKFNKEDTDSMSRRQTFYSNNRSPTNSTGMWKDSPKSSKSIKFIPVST
measuredParameter: pIC50

Consider the reported pIC50 for these molecules:
| querySmiles | pIC50 |
| --- | --- |
| COc1ccccc1-c1ccc(C(=O)N2Cc3ccc(C(=O)N4CCN(c5ccncc5)CC4)n3Cc3ccccc32)cc1C | 6.44 |
| COc1cccc(-c2ccc(C(=O)N3Cc4ccc(C(=O)N(C)Cc5cccnc5)n4Cc4ccccc43)cc2C)c1 | 6.56 |
| COc1ccccc1-c1ccc(C(=O)N2Cc3ccc(C(=O)N(C)Cc4cccnc4)n3Cc3ccccc32)cc1OC | 6.35 |
| COc1cc(C(=O)N2Cc3ccc(C(=O)N(C)Cc4cccnc4)n3Cc3ccccc32)ccc1-c1ccccc1C(F)(F)F | 6.10 |

A. COc1cc(-c2ccccc2Cl)c(Cl)cc1C(=O)N1Cc2ccc(C(=O)N(C)Cc3cccnc3)n2Cc2ccccc21
B. COc1ccccc1-c1ccc(C(=O)N2Cc3ccc(C(=O)N(C)Cc4cccnc4)n3Cc3ccccc32)cc1C
C. Cc1cc(C(=O)N2Cc3ccc(C(=O)N4CCN(Cc5ccc[n+]([O-])c5)CC4)n3Cc3ccccc32)ccc1-c1ccccc1C(F)(F)F
Query block: Rank the items in ascending order with respect to pIC50. Respond with an ordered listing of the labels, as requested.
Result block: C, A, B
